experimental.details: qHTS of pediatric cancer cell lines to identify multiple opportunities for drug repurposing: Confirmatory screen for NB-EBc1 cells (AID 1347115);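 also: cells exposed to compound for 48 h before the viability read; nearly all actives have a fitted effect of over 45% in size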
cond: NB-EBc1 neuroblastoma cells, viability (cytotoxicity); series mostly up to 45.9 µM
Inconclusive results are not listed. Active and inactive are the calls of the source. Calls follow the shape of the dose curve; as a rule, active = well fitted cell-killing curve with a large enough effect; inconclusive = small, poorly fitted or top-dose-only effect, or effect the other way; inactive = no such curve, though single readings can be large or run the other way.
Outcomes you can answer with include only these: active, inactive

Give the logged outcome of this assay for the following molecule: CCN(CC)CC(=O)OCC(=O)[C@@]1(O)CC[C@H]2[C@@H]3CCC4=CC(=O)CC[C@]4(C)[C@H]3[C@@H](O)C[C@@]21C inactive

Try this molecule too: C[C@H]1C[C@H]2[C@@H]3CCC4=CC(=O)C=C[C@]4(C)[C@H]3C(=O)C[C@]2(C)[C@@]1(O)C(=O)CO active

Try this molecule too: CC(C)=CCC/C(C)=C/CC/C(C)=C/C(=O)OCC(=O)[C@@]1(O)CC[C@H]2[C@@H]3CCC4=CC(=O)C=C[C@]4(C)[C@H]3[C@@H](O)C[C@@]21C inactive

Try this molecule too: CCCCC(CC)CNC(=O)CC(C)OC(=O)CCC(=O)O (stereo not given) inactive

Try this molecule too: Nc1c2ccccc2nc2ccccc12 active

Try this molecule too: N=C(N)c1ccc(OCCCOc2ccc(C(=N)N)cc2)cc1 inactive

Try this molecule too: Cc1cc(OCCOCC[N+](C)(C)Cc2ccccc2)ccc1C(C)(C)CC(C)(C)C active

Try this molecule too: COc1cc(/C=C/C(N)=O)cc(OC)c1OC inactive

Try this molecule too: CC(=O)[C@@]1(O)CC[C@H]2[C@@H]3C[C@H](C)C4=CC(=O)CC[C@]4(C)[C@H]3CC[C@@]21C inactive

Try this molecule too: O=c1[nH]sc2cc(Cl)ccc12 active

# credit: PubChem BioAssay (NCATS)
